Assay: yeast display, Sf9 membrane polyspecificity reagent, FACS + sequencing; frameworks hold sequencing errors

| Sequence Data | polyreactivity (PSR sort gate) |
| --- | --- |
| QVQLVESGGGLVQAGGSLRLSCAASGSTFHYYAMGWYRQEPGKERELVAAISGSGSSTYYADSVKGRFTISRDNAKNTVYLQMNSLKPEDTAVYYCNARGHYPRARFGYKSGSDRYWGQGTQVTVSS | high polyreactivity |
| QVQLVESGGGLVQAGGSLRLSCAASGFTFPSYTMGWYRQAPGKERELVAAISWSGGRTYYADSVKGRFTISRDNAKITVYLQKNSLKPEETAVYYCAAGYRTGGDSGDYWGQGTQVTVSS | high polyreactivity |
| QVQLVESGGGLVQAGGSLRLSCAASGLILYSYAMGWYRQAPGKERELVADISSGGITNYADSVKGRFTISRDNAKNTVYLQMNSLKPEDTAVYYCAADTRPVNYILYDYWGQGTQVTVSS | low polyreactivity |
| QVQLVESGGGLVQAGGSLRLSCAASGFTFRRNAMGWYIQAPGKERELVAAINVRDGSTYYADSVKGRFTISRDNAKNTVYLQMNSLKPEDTAVYYCAAEFFQGYYWYYYWGQGTQVTVSS | high polyreactivity |
| QVQLVESGGGLVQAGGSLRLSCAASGLIFDTYAMGWYRQAPGKEREWVADITWSGGSTYYADSVKGRFTISRDNAKNTVYLQMNSLKPEETAVYYCAADSVSLFYWDQRYPDEYDYWGQGTQVTVSS | low polyreactivity |
| QVQLEESGGGLVQAGGSLRLSCADSGSTFYTNAMGWYRQAPGKERELVAAISASVGSTYYADSVKGRFTISRDNAKNTVYLQMNILKPEDTAVYYCAAYVWDSRRYDYWGQGTQVTVSS | low polyreactivity |
| QEQLVESGGGLVQAGGSLRLSCAASGSIQPNAMGWYRQAPGKEREFVAAISRSGASTYYADSVKGRFTISRDNAKNTVYLQMNSLKPADTAVYYCAADFYYYNNNDYDYWGQGTQVTVSS | high polyreactivity |
| QVQLEESGGGLDQAGGSLRLSCAASGIIFGYYAMGWYIQAPGKQSEFVAAINYSGVSTYYADSVKGRFTISLDNAKNTVYLEMHSLKPEDTAVYYCAAGPYAGVDPGYYYYWGKGTQVTVSS | low polyreactivity |
| QVQLVESGGGLVQAGGSLRLSCSDSGRTFGGNAMGRYRQAPGKERELVAAISRSGGTTYYADSVKGRFTISRDNAKNTVYLQMNSLKPEDTAVYYCNTRRYGAMYYWGQGTQVTVSS | high polyreactivity |
| QVQLVESGGGLVQAGGSLRLISAASGSTFRHYALGWNRQAPGKERELVAAISSTGGSTYYADSVKGRFTISRDNAKNTVYLQMNSLKPEDTAVFYCAARRLYWGQGTQVTVSS | high polyreactivity |
| QVQLVESGGGLVQAGGSLRLSCAASGFIFANNAMVWYRQAPGKERELVAVISQRGGRTYYADSVKGRFTISRDNAKNTVYLQMNSLKPADTAVYYCAASYSIAYVSPRNWHDYWGQGTQVTVSS | low polyreactivity |
| QVQLVESGGGLVQAGGSLRLSCAASGFIFDYSAMGWYRQAPGKERELVAAISHSGGTTYYADSVKGRFTISRDKAKNTVYLQMNSLKPEDTAVYYCNALYRKDFNSEYDYWGPGTQVTVSS | high polyreactivity |
| QVQLVESGGGLVQAGGSLRLSCAASGSIFRGYTMGWYRQAPGKERELVAAISRSGGSTYYADSVKGRFTISRDNAKNTVYLQMNSLKPEDTAVYYCNVVYFVTTSPGYDYWGQGTQVTVSS | high polyreactivity |
| QVQLVESGGCLEQAGGSLRLSCAASGFTFVSNDMGWYRQAPGKERELVAAISQGGGSTYYADSVKGRFTISRDNAKNTVYLQMNSLKPEDTAVYYCAAEDVYFGYDYWGQGTQVTVSS | low polyreactivity |
| QVQLLESGGGLVQAGGSLRLSCAASGRILRINTMGWYRQAPGKERELVAAISWSGGTTYYADSVKGRFTISRDNAKNTVYLQMNSLKPEDTAVYYCNKAIWYAEYDYWGQGTQVTVSS | low polyreactivity |
| QVQLVESGGGLVQAGGSLRLSCAASGYIFYGYAMGWYRQAPGKERELVAAITGDGASTNYADSVKGRFTISRDNAKNTVYLQMNSLKPEDTAVYYCNAGRESDDVYEGSQRIGQFDYWGQGTQVTVSS | low polyreactivity |
| QVQLVESGGGLVQAGGSLRLSCAASGITFKWYAMGWYRQAPGKERELVAAISWSTGSTYYADSVKGRFTISRDNAKNTVYLPMNSLKPEDTAVYYCAARVKRPQTGYDRRYGYWGQGTQVTVSS | high polyreactivity |
| QVQLVESGGGLVQAGGSLRLSCAASGSTRYNAMGWYRQAPGKERELVASIRGNAGSTYYADSVKGRFTISRDNAKNTVYLQMNSLKPEDTAVYYCNARVLRYSCFHYDYCGQGTQVTVSS | high polyreactivity |
| QVQLVESGGGLVQAGGSLRLSCAASGSIFTANAMGWYRQAPGKERELVAAISRSGGRTYYADSLKGRFTISRDNEKNTVYLQWKSLKPEDTAVYYCNVGRFNTSGYDYWGLGTQVTVSS | high polyreactivity |
| QVQLVESGGGLVQAGGSLRLSCAASGRIFGRYAMGWYRQAPGKERELVAAISRRGGTTYYADSVKGRFTISRDNAKNTVYLQMNSLKPEDTAVYYCNADTYGYGFDYWGQGTQVTVSS | high polyreactivity |
| QVQLVESGGRLVQAGGSLRLSCAASGRIYTPYAMGWYRQAPGTERELVAAISTIGGTTYADSVKGRFTISRDNAKNTVYLQMNSLKPEDTAVYYCNTRRTGRRSTTPGDYWGQGTQVTVSS | high polyreactivity |
